Experimental Details: physchem
Test Settings: buffer, pH 7.4, logD
Measured Property: chromatographic logD

Molecule | chromatographic logD
CC1(c2ccc(N3CCOC3=O)cc2)NC(=O)N(CC(=O)c2ccc(F)cc2F)C1=O (stereo not given) | 3.94
CC1(c2ccc(C#N)cc2)NC(=O)N(Cc2ccc(F)cc2)C1=O (stereo not given) | 4.5
CC1(c2ccc(OC(F)F)cc2)NC(=O)N(CC(=O)c2ccccc2)C1=O (stereo not given) | 4.97

I. CC1(c2ccc(OC(F)F)cc2)NC(=O)N(CC(=O)c2ccc3c(c2)OCO3)C1=O (stereo not given)
II. CC1(c2ccc(N)cc2)NC(=O)N(CC(=O)c2ccc(F)cc2F)C1=O (stereo not given)
Ask | Please indicate which entry, I or II , has the lower recorded chromatographic logD value. Return value: the label identifying the chosen record.
Reply | II
(II: 3.38, I: 4.9)
